Please go through the items and note down their MIC.
- Test system: Shigella flexneri
- Protocol Summary: Compound was tested for antibacterial activity against Shigella flexneri
- Format: functional
One number for each entry, in µg/mL.

NCC(=O)N[C@@H](CCl)C(=O)O :: 1.56

Dear colleague, could you please provide MIC for the compounds listed below?
1. CC[C@H](C)[C@H](N)C(=O)N[C@@H](CCl)C(=O)O
2. CC(C)C[C@H](N)C(=O)N[C@@H](CCl)C(=O)O
3. N[C@@H](Cc1ccccc1)C(=O)N[C@@H](CCl)C(=O)O
4. CCCC[C@H](N)C(=O)N[C@@H](CCl)C(=O)O

Resp:
[25, 50, 100, 3.12]
